The reader will find reported Percent Effect values listed item by item below.
system: Wolbachia pipientis; assay: Anti-Wolbachia Cell-Based Screen; type: functional; design: scale not given: in the data most compounds retested in dose-response had high values; details: 5 µM
About 13,000 (27%) of roughly 48,000 compounds showed an effect of 50% or more. The list shows a part of the results.
property-measured: Percent Effect (%)

> print(dat)
                                    molecule  property.measured   observed
 1   COc1cccc(COCC(=O)N2CCN(CC(C)(C)O)CC2)c1     Percent Effect    -0.1486
 2         CN(Cc1ccsc1)C(=O)Nc1ccc(=O)n(C)c1     Percent Effect     -4.532
 3  O=C(c1ccco1)N1CCCC(c2cc(C(F)(F)F)n3ncnc3n2)C1 (centres undefined)     Percent Effect      95.67
 4                 CCOCCCNC(=O)c1nn(CC)cc1Cl     Percent Effect      13.91
 5     Cc1nc(C2CCNCC2)cc(N(C)CCc2cn[nH]c2)n1     Percent Effect     -7.954
 6  CNc1cncc(C2CCCN2Cc2ccn(C)n2)n1 (centres undefined)     Percent Effect      90.43
 7  Cc1nccc(CNS(=O)(=O)N2CCCC2c2ccc(C)o2)n1 (centres undefined)     Percent Effect     -6.689
 8  CNc1cncc(C2CCCN2Cc2ccnc(N3CCCC3)n2)n1 (centres undefined)     Percent Effect      113.8
 9  CNc1ccnc(N2CCC(c3nnc(CN4CCCC4)n3C)CC2)n1     Percent Effect      5.752
10  Cc1cc(F)ccc1OC1(C(=O)O)CCN(Cc2nccn2C)CC1     Percent Effect     -12.18
11  Cc1nc(C2CCCNC2)cc(N(C)CCc2ccccc2)n1 (centres undefined)     Percent Effect      1.735
12       Cc1cccc(OCC(=O)N(Cc2ccncc2)C2CC2)c1     Percent Effect  -0.008091
13  Cc1ncsc1C(=O)N1CCCC(c2cc(C(F)F)n3ncnc3n2)C1 (centres undefined)     Percent Effect      110.2
14  CCN(Cc1ccncc1)c1cc(C2CCCNC2)nc(C)n1 (centres undefined)     Percent Effect      103.1
15  O=C1N(Cc2ccc(F)c(F)c2)CCCC12CCN(C1CCSCC1)C2 (centres undefined)     Percent Effect     -6.504
16  CCCn1cc(Cl)c(C(=O)N2C[C@@H](O)[C@H](NC(C)=O)C2)n1     Percent Effect      135.9
17  O=C(c1ccncc1)N1CCCC(c2cc(C(F)F)n3ncnc3n2)C1 (centres undefined)     Percent Effect      88.08
18      Cc1nc(C2CCNCC2)cc(N2CCOc3ccccc3C2)n1     Percent Effect     -3.992
19  CCCn1cc(Cl)c(C(=O)N2C[C@H]3C[C@H](OC)C[C@H]3C2)n1     Percent Effect      128.4
20  CCCn1cc(C(=O)n2nc(C)cc2C)c(S(=O)(=O)N2CCSCC2)n1     Percent Effect     -15.72
21  CNc1cncc(C2CCCN2Cc2ccccn2)n1 (centres undefined)     Percent Effect     -6.614
22  CNc1cncc(C2CCCN2Cc2ccnc(C)n2)n1 (centres undefined)     Percent Effect      94.65
23  CC(=O)N[C@@H]1CN(C(=O)c2ccncc2)C[C@H]1c1ccc(C)cc1     Percent Effect     -2.552
24  O=C(c1ccco1)N1CCCC(c2cc(C(F)F)n3ncnc3n2)C1 (centres undefined)     Percent Effect      -11.1

====

system: Wolbachia pipientis; experiment: Anti-Wolbachia Cell-Based Screen; format: functional; set-up: scale not given: in the data most compounds retested in dose-response had high values; details: 5 µM
Screen size: about 48,000 compounds; about 13,000 (27%) showed an effect of 50% or more. This is one part of the list.
property-measured: Percent Effect (%)

> print(dat)
                                    compound  property.measured  observed
 1            CNc1nc(CNC(=O)Nc2cccc(F)c2)cs1     Percent Effect   -0.1987
 2  O=C(N1CCC(Oc2ccncc2)C1)C1(c2cccc(F)c2)CC1 (centres undefined)     Percent Effect     -3.42
 3  CN(C(=O)Nc1cccc(C#N)c1)C1CCN(c2ccccn2)CC1     Percent Effect    -13.99
 4   CCN(c1ccc(C(=O)N2CCCCC2)cc1)S(=O)(=O)CC     Percent Effect     114.5
 5  CN(C(=O)c1cc(Cl)c[nH]1)C1CCN(c2ccccn2)CC1     Percent Effect    -4.084
 6   CN(C(=O)c1ccc(Cl)cc1)C1CCN(c2ccccn2)CC1     Percent Effect     98.58
 7  Cc1cc(C)cc(C2(C(=O)N3CCCC(n4cncn4)C3)CC2)c1 (centres undefined)     Percent Effect     4.808
 8  O=C(N1CCCC(n2cncn2)C1)C1(c2cccc(F)c2)CCC1 (centres undefined)     Percent Effect     131.6
 9  O=C(N1CCCC(n2cncn2)C1)C1(c2ccc(Cl)cc2)CCC1 (centres undefined)     Percent Effect     129.1
10     Cc1ccc(NC2CCN(C(=O)CCc3ccccc3)CC2)nn1     Percent Effect     109.9
11   CN(C(=O)c1cccc(Cl)c1)C1CCN(c2ccccn2)CC1     Percent Effect     127.4
12  CCCC1(CO)CCCN(C(=O)CCCn2nc(C)cc2C)C1 (centres undefined)     Percent Effect    0.5939
13  CN(C(=O)c1ccc(C#N)cc1)C1CCN(c2ccccn2)CC1     Percent Effect     4.986
14  CC(C)(C)C(=O)NCCc1cc2nc(-c3ccncc3)ccn2n1     Percent Effect     129.3
15  Cc1cc(NC(=O)N2CCN(c3cccs3)CC2)ccc1C(N)=O     Percent Effect     6.081
16  CCS(=O)(=O)N(C)C1CCN(C(=O)c2ccc(C)c(C)c2)CC1     Percent Effect     -2.68
17         O=C(CCc1ccsc1)N1CCC(Nc2cccnn2)CC1     Percent Effect     87.13
18  CCCC1(CO)CCCN(Cc2ncccn2)C1 (centres undefined)     Percent Effect    -3.233
19  O=C(c1ccn[nH]1)N1CCCC(n2cncn2)C1 (centres undefined)     Percent Effect     8.656
20  COCCS(=O)(=O)Nc1ccc(-n2nccc2C(F)(F)F)cc1     Percent Effect    0.6513
21      Cc1ccc(NC2CCN(C(=O)CCc3ccsc3)CC2)nn1     Percent Effect     107.5
22  O=C(N1CCCC(n2cncn2)C1)C1(c2cccc(F)c2)CCCC1 (centres undefined)     Percent Effect     112.9
23    CC(C)(C)OC(=O)N1CCC[C@H](NCC2CCOCC2)C1     Percent Effect    -10.59
24  CCN(c1ccc(C(=O)N2CCCCCC2)cc1)S(=O)(=O)CC     Percent Effect     148.2

====

system: Wolbachia pipientis; assay: Anti-Wolbachia Cell-Based Screen; assay type: functional; parameters: scale not given: in the data most compounds retested in dose-response had high values; details: 5 µM
The whole screen tested about 48,000 compounds, of which about 13,000 (27%) showed an effect of 50% or more. The list shows a part of the results.
property-measured: Percent Effect (%)

> print(dat)
                                    compound          test.system  observed
 1  COCCOc1ncccc1C(=O)Nc1ccc(-n2cncn2)c(F)c1  Wolbachia pipientis    -9.189
 2  COCC(c1cccc(C(F)(F)F)c1)N(C)C(=O)c1cc(C)n[nH]1 (configuration not stated)  Wolbachia pipientis    -9.299
 3             Cc1cc(NC(=O)NCCc2ccsc2)n(C)n1  Wolbachia pipientis       2.6
 4  O=C(NC1CCN(c2ncccn2)CC1)c1cc2c(cc1O)CCCC2  Wolbachia pipientis     1.017
 5        O=C(NC1CCCCC1)c1cc(Br)cnc1N1CCCCC1  Wolbachia pipientis     116.3
 6  COc1ccc(Br)c(C(=O)NCC2CCN(S(=O)(=O)C3CC3)CC2)c1  Wolbachia pipientis     -4.78
 7  Cc1nc(CCNC(=O)C2CC(=O)N(C(C)(C)C)C2)sc1C (configuration not stated)  Wolbachia pipientis     2.949
 8                 CSC(C)(C)CNC(=O)NC1CCSCC1  Wolbachia pipientis     -7.35
 9  CCC(Nc1nc(C)nc2onc(C)c12)c1nc(C)c(C)s1 (configuration not stated)  Wolbachia pipientis     99.23
10  O=C(c1cnc(NCC2CCCO2)c(Cl)c1)N1CCOCC1 (configuration not stated)  Wolbachia pipientis     2.383
11  CCC(Nc1nc(CCN)nc2ccccc12)c1cccs1 (configuration not stated)  Wolbachia pipientis     21.59
12  CCC(Nc1nc(C)nc2onc(C)c12)c1cccs1 (configuration not stated)  Wolbachia pipientis     84.62
